- Species on record: Rattus norvegicus
- test_summary: Tested for vasorelaxant activity in rat thoracic aorta rings against PE-induced contractions
- Format: functional
Listed compounds paired with reported Maximal relaxation
measurement_name: Maximal relaxation (%)

>  <compound>
O=c1c(O[C@@H]2O[C@H](CO)C(O)C(O)[C@H]2O)c(-c2ccc(O)c(O)c2)oc2cc(O)cc(O)c12 (single isomer, unassigned)

>  <recorded_measurement>
34

$$$$
>  <compound>
Cc1c(O)c(C)c2c(c1O)C(=O)C(O)C(c1ccc(O)cc1)O2 (centres undefined)

>  <recorded_measurement>
64.4

$$$$
>  <compound>
O=c1cc(-c2cccc(Br)c2)oc2cc(O)cc(O)c12

>  <recorded_measurement>
95

$$$$
>  <compound>
O=c1cc(-c2ccc(O)c(O)c2)oc2cc(O)cc(O)c12

>  <recorded_measurement>
70.2

$$$$
>  <compound>
Cc1ccc(-c2cc(=O)c3c(O)cc(O)cc3o2)cc1

>  <recorded_measurement>
77.2

$$$$
>  <compound>
COc1cccc(-c2cc(=O)c3c(O)cc(O)cc3o2)c1

>  <recorded_measurement>
80.8

$$$$
>  <compound>
COCOc1c(-c2ccc(O)c(O)c2)oc2cc(O)cc(O)c2c1=O

>  <recorded_measurement>
71.6

$$$$
>  <compound>
O=c1c(O[C@@H]2OC[C@@H](O)[C@H](O)[C@@H]2O)c(-c2ccc(O)c(O)c2)oc2cc(O)cc(O)c12

>  <recorded_measurement>
24.7

$$$$
>  <compound>
O=c1cc(-c2ccc3c(c2)OCO3)oc2cc(O)cc(O)c12

>  <recorded_measurement>
91.3

$$$$
>  <compound>
C[C@@H]1O[C@@H](OC[C@H]2O[C@@H](Oc3c(-c4ccc(O)c(O)c4)oc4cc(O)cc(O)c4c3=O)C(O)[C@@H](O)[C@@H]2O)[C@H](O)[C@H](O)[C@H]1O (single isomer, unassigned)

>  <recorded_measurement>
24.7

$$$$
>  <compound>
O=c1cc(-c2ccc(Cl)cc2)oc2cc(O)cc(O)c12

>  <recorded_measurement>
92.7

$$$$
>  <compound>
O=c1c(O[C@@H]2OC[C@@H](O)[C@@H](O)[C@H]2O)c(-c2ccc(O)c(O)c2)oc2cc(O)cc(O)c12

>  <recorded_measurement>
35.1

$$$$
>  <compound>
O=c1cc(-c2ccccc2)oc2cc(O[C@@H]3O[C@H](CO)[C@@H](O)C(O)[C@H]3O)c(O)c(O)c12 (single isomer, unassigned)

>  <recorded_measurement>
36.2

$$$$
>  <compound>
O=c1c(O)c(-c2ccc(O)c(O)c2)oc2cc(O)cc(O)c12

>  <recorded_measurement>
45.9

$$$$

src = ChEMBL document CHEMBL1137120
